Entry source: paper PMC5019375

Target: cIAP2-BIR3 (Homo sapiens)
Sequence (Q13489 243-333): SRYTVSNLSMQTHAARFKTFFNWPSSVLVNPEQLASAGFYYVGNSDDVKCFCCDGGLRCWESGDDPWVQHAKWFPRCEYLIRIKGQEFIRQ
Test: FP competition assay, displacement of SMAC-rhodamine
property: log10 of Ki (log10 of the value in nM)
Scale: decimal log of Ki, Ki in nM.

1) CN[C@@H](C)C(=O)N[C@H](C(=O)N[C@@H](CCCN=C(N)N)C(=O)NNc1ccccc1)C(C)C [compound 28]	3.15
2) CN[C@@H](C)C(=O)N[C@@H](CC(=O)O)C(=O)N1CCC[C@H]1C(=O)N[C@@H]1CCCc2ccccc21 [compound 7]	4.10
3) CN[C@@H](C)C(=O)N[C@H](C(=O)N[C@@H](CCCNC(=O)OCc1ccccc1)C(=O)N[C@@H]1CCCc2ccccc21)C(C)C [compound 10]	2.34
4) CC(C)[C@H](NC(=O)[C@H](C)N)C(=O)N[C@@H](C)C(=O)Nc1cccc2ccccc12 [compound 17]	2.99
5) CN[C@@H](C)C(=O)N[C@H](C(=O)N[C@@H](CCCN)C(=O)N[C@@H]1CCCc2ccccc21)C(C)C [compound 13]	1.85

# map each molecule to its log10 of Ki
1. CN[C@@H](C)C(=O)N[C@@H](CC(C)C)C(=O)N1CCC[C@H]1C(=O)N[C@@H]1CCCc2ccccc21 [compound 5]
2. CC[C@H](NC(=O)[C@H](C)NC)C(=O)N1CCC[C@H]1C(=O)N[C@@H]1CCCc2ccccc21 [compound 3]

Output:
2.08
1.78
